Molecular target: NAT (N-acetyltransferase)
Test: Kd measurement (Fig. S8, method not shown); fluorescence titration and 1H NMR of acetylation by NAT
readout.type: Kd

Look up Kd with NAT (N-acetyltransferase) for this compound: COc1ccc2c(c1)c(CC(=O)NCCCCN1C(=O)c3cccc4cc(N)cc(c34)C1=O)c(C)n2C(=O)c1ccc(Cl)cc1 [3IAN4] 2230 nM
